Data origin: patent US9980943B2

Listed next: entries and their corresponding Burkin Assay in Myoblasts, signal relative to DMSO.
Tested on: α7 integrin (LacZ reporter in α7βgal+/− myoblasts)
experimental details: Myoblast α7+/LacZ integrin FDG assay (Burkin assay in myoblasts, 96-well)
Format: cell-based, mouse
study conditions: 10 uM; α7+/LacZ myoblasts, 96-well
experimental endpoint: Burkin Assay in Myoblasts, signal relative to DMSO

                                   compound  measured_value
0  COc1ccc(C)cc1NC(=O)c1ccc2c(O)c(S(=O)(=O)c3ccccc3)c(=O)[nH]c2c1          0.9092
1          COc1ccc(C(=O)Nc2ccc(Cl)cn2)cc1Cl          0.7355
2       CNC(=O)CSc1nnc(-c2ccc3c(c2)OCO3)n1C           1.038
3  Cc1ccccc1NC(=O)c1ccc2c(O)c(S(=O)(=O)c3ccccc3)c(=O)[nH]c2c1          0.9652
4  Cn1cc(CN2CCC(C(=O)Nc3cccc(-c4cscn4)c3)CC2)cn1           1.246
5  CC(O)CNc1nc2c(c(=O)n(Cc3ccc(Br)cc3)c(=O)n2C)n1C (stereo not drawn)          0.8826
6  Cc1ccccc1S(=O)(=O)N1C[C@H]2CON(C)[C@H]2C[C@H]1c1cccc(-c2ccccc2)c1            1.09
7     CCCNC(=S)N1CCC(NC(=O)c2ccc(OC)cc2)CC1           0.972
8        Cc1ccccc1OCC(=O)Nc1nnc(-c2ccco2)s1          0.9188
